Target: HIV integrase (Human immunodeficiency virus type 1 group M subtype B, UniProt P12497, F1332H)
Construct: HIV integrase full length gene
Assay: Determination of enzyme (HIV integrase) inhibitory activity (strand transfer, microtiter plate, absorbance at 450 nm)
Conditions: recombinant HIV integrase (F185H) expressed in E. coli; donor DNA on streptavidin plate, digoxigenin target DNA; 37° C.
Description: The following explains evaluation methods of the HIV integrase inhibitory activity of the compound of the present invention. (i) Construction of Recombinant Integrase Gene Expression System (ii) Production and Purification of Integrase Protein […] A peroxidase color solution (Bio Rad, 100 μl) was added and allowed to react at room temperature for 4 min. […] The absorbance at 450 nm was measured. […]
pIC50: −log10 of the molar value.
Classification field: enter 1.0 for pIC50 values not below 8, 0.0 for values below it.

Some entries whose results are on file:
STRUCTURE_AS_SMILES | CLASS_NAME
COc1cc(Cc2cccc(Cl)c2F)cc2c(=O)c(C(=O)O)cn([C@H](CO)C3CCCCC3)c12 | 1.0
O=C(O)c1cn(CCO)c2c(OCC3CCCCC3)cc(Cc3cccc(Cl)c3F)cc2c1=O | 1.0
O=C(O)c1cn(CCO)c2ccc(Cc3cccc([N+](=O)[O-])c3)cc2c1=O | 0.0

Q: Entry `CC(C)(O)Cn1cc(C(=O)O)c(=O)c2cc(Cc3cccc(Cl)c3Cl)ccc21` : is its pIC50 no less than 8?
Result: 0.0

Q: One more molecule: `O=C(O)c1cn(CCO)c2ccc(Cc3cccc(Cl)c3Cl)c(F)c2c1=O`
Result: 0.0

Q: How about this molecule: `CS(=O)(=O)CCn1cc(C(=O)O)c(=O)c2cc(Cc3cccc(Cl)c3Cl)ccc21`
Result: 0.0

###

Target: HIV integrase (Human immunodeficiency virus type 1 group M subtype B, UniProt P12497, F1332H)
Construct: HIV integrase full length gene
Assay: Determination of enzyme (HIV integrase) inhibitory activity (strand transfer, microtiter plate, absorbance at 450 nm)
Conditions: recombinant HIV integrase (F185H) expressed in E. coli; donor DNA on streptavidin plate, digoxigenin target DNA; 37° C.
pIC50: −log10 of the molar value.
Cut-off 7 on pIC50, inclusive. At or above means class 1; below means class 0.

STRUCTURE_AS_SMILES | CLASS_NAME
CSCn1cc(C(=O)O)c(=O)c2cc(Cc3cccc(Cl)c3Cl)ccc21 | class 1
O=C(O)c1cn(CCO)c2c(NCCO)cc(Cc3cccc(Cl)c3F)cc2c1=O | class 1
O=C(O)c1cn(CCO)c2cc(OCCCO)c(Cc3cccc(Cl)c3F)cc2c1=O | class 1

Q: Kindly determine if pIC50 recorded for `COc1cc2c(cc1Cc1cccc(Cl)c1F)c(=O)c(C(=O)O)cn2CCO` is above or exactly 7.
Result: class 1

Q: Request: `COC(=O)Nn1cc(C(=O)O)c(=O)c2cc(Cc3cccc(Cl)c3Cl)ccc21`
Result: class 0

Q: Then what about the compound `O=C(O)c1cn(CCO)c2ccc(Cc3ccccc3)cc2c1=O` ?
Result: class 0

Q: Continue with `CCOC(=O)NCCn1cc(C(=O)O)c(=O)c2cc(Cc3cccc(Cl)c3Cl)ccc21`
Result: class 1

###

Target: HIV integrase (Human immunodeficiency virus type 1 group M subtype B, UniProt P12497, F1332H)
Construct: HIV integrase full length gene
Experiment: Determination of enzyme (HIV integrase) inhibitory activity (strand transfer, microtiter plate, absorbance at 450 nm)
Details: recombinant HIV integrase (F185H) expressed in E. coli; donor DNA on streptavidin plate, digoxigenin target DNA; 37° C.
Field: IC50. Provide a value for each of the molecules that follow.
Answers are plain numbers, in µM.

For orientation, consider the following solved cases.
STRUCTURE_AS_SMILES | IC50, µM
N#Cc1cc2c(cc1Cc1cccc(Cl)c1Cl)c(=O)c(C(=O)O)cn2CCO | 0.075
CNn1cc(C(=O)O)c(=O)c2cc(Cc3cccc(Cl)c3Cl)ccc21 | 0.079
O=C(O)c1cn(CC(F)(F)F)c2ccc(Cc3cccc(Cl)c3Cl)cc2c1=O | 0.076
CCNn1cc(C(=O)O)c(=O)c2cc(Cc3cccc(Cl)c3Cl)ccc21 | 0.085
O=C(O)c1cn(CCCc2ccccc2)c2ccc(Cc3cccc(Cl)c3Cl)cc2c1=O | 0.084
CCn1cc(C(=O)O)c(=O)c2cc(Cc3cccc(Cl)c3Cl)ccc21 | 0.11
CN(C)n1cc(C(=O)O)c(=O)c2cc(Cc3cccc(Cl)c3Cl)ccc21 | 0.092
O=C(O)CCn1cc(C(=O)O)c(=O)c2cc(Cc3cccc(Cl)c3Cl)ccc21 | 0.072

Next item in the queue.
Q: Quick one: IC50 of `O=C(O)c1cn(CCc2ccccc2)c2ccc(Cc3ccccc3Cl)cc2c1=O` ?
Result: 0.12

Reference for the values: patent US8232401B2
